- Test system: A549-CANX-COX4
- assay.summary: phenotypically active (imaging signature differs from DMSO and reproducible) at any of 0.3-9 uM (binary (1 = active, 0 = inactive)); higher = active
- test.context: treatment time: 24 h
readout.type: phenotypically active
Note: the reply should be a number with no unit written.

compound: NS(=O)(=O)c1cc(C2(O)NC(=O)c3ccccc32)ccc1Cl (stereo unspecified)
phenotypically active: 0
--
compound: COc1ccc2c(c1)c(CC(=O)O)c(C)n2C(=O)c1ccc(Cl)cc1
phenotypically active: 0
--
compound: NCCc1ccc(O)c(O)c1
phenotypically active: 0

## Input Report value: phenotypically active, system: A549-CANX-COX4, compound: NS(=O)(=O)c1cc(Cl)c(Cl)c(S(N)(=O)=O)c1 [diclofenamide]
## Output 0

## Input Report value: phenotypically active, system: A549-CANX-COX4, compound: COc1ccc([C@@H]2Sc3ccccc3N(CCN(C)C)C(=O)[C@@H]2OC(C)=O)cc1
## Output 0

## Input Report value: phenotypically active, system: A549-CANX-COX4, compound: CC(=O)c1c(C)c2cnc(Nc3ccc(N4CCNCC4)cn3)nc2n(C2CCCC2)c1=O
## Output 1

## Input Report value: phenotypically active, system: A549-CANX-COX4, compound: CC1=CC(=O)CC(C)(C)C1(O)/C=C/C(C)=C\C(=O)O (mixture of isomers) [(+/-)-2-cis-4-trans-Abscisic acid]
## Output 0

## Input Report value: phenotypically active, system: A549-CANX-COX4, compound: COCC(=O)O[C@]1(CCN(C)CCCc2nc3ccccc3[nH]2)CCc2cc(F)ccc2[C@@H]1C(C)C
## Output 1

## Input Report value: phenotypically active, system: A549-CANX-COX4, compound: Clc1ccc2c(c1)C(N1CCNCC1)=Nc1ccccc1O2
## Output 0

## Input Report value: phenotypically active, system: A549-CANX-COX4, compound: CN(C)CCC[C@@]1(c2ccc(F)cc2)OCc2cc(C#N)ccc21
## Output 0

## Input Report value: phenotypically active, system: A549-CANX-COX4, compound: CC(C[N+](C)(C)C)OC(N)=O (stereo unspecified)
## Output 0
